Reference for the values: ChEMBL document CHEMBL1133215

target: Growth factor receptor-bound protein 2 (Mus musculus); test: In vitro inhibitory activity against Shc/Grb2 interactions in B104-1-1 cells at 5 uM; format: functional, cell-based
# reported inhibition; entries follow
Record the value in %, omitting the unit from your answer.

compound: Cc1c2oc3c(C)ccc(C(=O)N[C@@H]4C(=O)N[C@H](C(C)C)C(=O)N5CCC[C@H]5C(=O)N(C)CC(=O)N[C@H](C(C)C)C(=O)O[C@@H]4C)c3nc-2c(C(=O)N[C@@H]2C(=O)N[C@H](C(C)C)C(=O)N3CCC[C@H]3C(=O)N(C)CC(=O)N[C@H](C(C)C)C(=O)O[C@@H]2C)c(N)c1=O
quantity_name: inhibition
readout_value: 86
--
compound: Cc1c2oc3c(C)ccc(C(=O)N[C@@H]4C(=O)N[C@H](Cc5ccc(O)cc5)C(=O)N5CCC[C@H]5C(=O)N(C)CC(=O)N[C@@H](C(C)C)C(=O)O[C@@H]4C)c3nc-2c(C(=O)N[C@@H]2C(=O)N[C@H](Cc3ccc(O)cc3)C(=O)N3CCC[C@H]3C(=O)N(C)CC(=O)N[C@@H](C(C)C)C(=O)O[C@@H]2C)c(N)c1=O (stereo in doubt; 1)
quantity_name: inhibition
readout_value: 90.7

Now consider a different compound.
Request: Enter reported inhibition observed with Growth factor receptor-bound protein 2 (Mus musculus) for `CC[C@@H](C)[C@H]1NC(=O)CN(C)C(=O)[C@@H]2CCCN2C(=O)[C@@H]([C@H](C)CC)NC(=O)[C@@H](NC(=O)c2c3nc4c(C(=O)N[C@@H]5C(=O)N[C@H]([C@H](C)CC)C(=O)N6CCC[C@H]6C(=O)N(C)CC(=O)N[C@H]([C@H](C)CC)C(=O)O[C@@H]5C)ccc(C)c4oc-3c(C)c(=O)c2N)[C@@H](C)OC1=O`
Result: 25.3

###

molecular target: Growth factor receptor-bound protein 2 (Mus musculus); test: In vitro inhibitory activity against Shc/Grb2 interactions in B104-1-1 cells at 2 uM; format: functional, cell-based
quantity_name: inhibition (%)
Record the value in %, omitting the unit from your answer.

Look over these answered cases.
compound: Cc1c2oc3c(C)ccc(C(=O)N[C@@H]4C(=O)N[C@H](C(C)C)C(=O)N5CCC[C@H]5C(=O)N(C)CC(=O)N[C@H](Cc5ccc(O)cc5)C(=O)O[C@@H]4C)c3nc-2c(C(=O)N[C@@H]2C(=O)N[C@H](C(C)C)C(=O)N3CCC[C@H]3C(=O)N(C)CC(=O)N[C@H](Cc3ccc(O)cc3)C(=O)O[C@@H]2C)c(N)c1=O (stereo in doubt; 12)
inhibition / %: 79.9

compound: Cc1c2oc3c(C)ccc(C(=O)N[C@@H]4C(=O)N[C@H](C(C)C)C(=O)N5CCC[C@H]5C(=O)N(C)CC(=O)N[C@@H](Cc5ccc(O)cc5)C(=O)O[C@@H]4C)c3nc-2c(C(=O)N[C@@H]2C(=O)N[C@H](C(C)C)C(=O)N3CCC[C@H]3C(=O)N(C)CC(=O)N[C@@H](Cc3ccc(O)cc3)C(=O)O[C@@H]2C)c(N)c1=O (stereo in doubt; 10)
inhibition / %: 75.9

Request: Quick one: inhibition for `COc1ccc(C[C@H]2NC(=O)CN(C)C(=O)[C@@H]3CCCN3C(=O)[C@@H](C(C)C)NC(=O)[C@@H](NC(=O)c3c4nc5c(C(=O)N[C@@H]6C(=O)N[C@H](C(C)C)C(=O)N7CCC[C@H]7C(=O)N(C)CC(=O)N[C@H](Cc7ccc(OC)cc7)C(=O)O[C@@H]6C)ccc(C)c5oc-4c(C)c(=O)c3N)[C@@H](C)OC2=O)cc1` ?
Result: 46.9

Request: Quick one: inhibition for Cc1c2oc3c(C)ccc(C(=O)N[C@@H]4C(=O)N[C@H](Cc5ccc(O)cc5)C(=O)N5CCC[C@H]5C(=O)N(C)CC(=O)N[C@@H](C(C)C)C(=O)O[C@@H]4C)c3nc-2c(C(=O)N[C@@H]2C(=O)N[C@H](Cc3ccc(O)cc3)C(=O)N3CCC[C@H]3C(=O)N(C)CC(=O)N[C@@H](C(C)C)C(=O)O[C@@H]2C)c(N)c1=O (stereo in doubt; 1) ?
Result: 84.3

Request: Quick one: inhibition for `Cc1c2oc3c(C)ccc(C(=O)N[C@@H]4C(=O)N[C@H](C(C)C)C(=O)N5CCC[C@H]5C(=O)N(C)CC(=O)N[C@H](C(C)C)C(=O)O[C@@H]4C)c3nc-2c(C(=O)N[C@@H]2C(=O)N[C@H](C(C)C)C(=O)N3CCC[C@H]3C(=O)N(C)CC(=O)N[C@H](C(C)C)C(=O)O[C@@H]2C)c(N)c1=O` ?
Result: 72

Request: Quick one: inhibition for `CC[C@@H](C)[C@H]1NC(=O)[C@@H](NC(=O)c2c3nc4c(C(=O)N[C@@H]5C(=O)N[C@H]([C@H](C)CC)C(=O)N6CCC[C@H]6C(=O)N(C)CC(=O)N[C@@H](C(C)C)C(=O)O[C@@H]5C)ccc(C)c4oc-3c(C)c(=O)c2N)[C@@H](C)OC(=O)[C@H](C(C)C)NC(=O)CN(C)C(=O)[C@@H]2CCCN2C1=O` ?
Result: 30.9

###

biological target: Growth factor receptor-bound protein 2 (Mus musculus, UniProt Q60631); test: In vitro binding assay of Shc-derived phosphopeptide to Growth factor receptor bound protein 2 SH2 in B104-1-1 cells was determined
Sequence (Q60631 whole entry): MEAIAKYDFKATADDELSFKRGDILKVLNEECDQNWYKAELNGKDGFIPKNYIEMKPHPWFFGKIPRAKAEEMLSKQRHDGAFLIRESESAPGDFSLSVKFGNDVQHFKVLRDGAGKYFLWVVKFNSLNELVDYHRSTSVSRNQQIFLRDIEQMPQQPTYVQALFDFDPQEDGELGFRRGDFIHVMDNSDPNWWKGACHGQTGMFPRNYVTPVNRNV
Numbered stars: 1 amine (or outer) side, 2 acyl side, 3 side chain; on linkers, the order of the positions; unused ones are H or OH. Bridge positions count the residues as written; N and C are the ends. Square brackets hold non-standard residues; d marks the D form. Peptide text beside a SMILES is read from it. I, II: the chains in the order shown. Actinocin(1to9) = Cc1c2oc3c(C)ccc(C(=O)[*:2])c3nc-2c(C(=O)[*:1])c(N)c1=O; NMeV = CN[C@H](C(=O)O)C(C)C; Sar = CNCC(=O)O
# reported pIC50; entries follow
// field semantics: pIC50 = negative decimal log of concentration (mol/L)

compound: Cc1c2oc3c(C)ccc(C(=O)N[C@@H]4C(=O)N[C@H](C(C)C)C(=O)N5CCC[C@H]5C(=O)N(C)CC(=O)N(C)[C@@H](C(C)C)C(=O)O[C@@H]4C)c3nc-2c(C(=O)N[C@@H]2C(=O)N[C@H](C(C)C)C(=O)N3CCC[C@H]3C(=O)N(C)CC(=O)N(C)[C@@H](C(C)C)C(=O)O[C@@H]2C)c(N)c1=O [DACTINOMYCIN] (I: T[dV]P[Sar][NMeV] / II: T[dV]P[Sar][NMeV]; ester I:1-I:C, II:1-II:C; linker I:N-II:N via Actinocin(1to9))
pIC50: 5.30
//
compound: Cc1c2oc3c(C)ccc(C(=O)N[C@@H]4C(=O)N[C@H](Cc5ccc(O)cc5)C(=O)N5CCC[C@H]5C(=O)N(C)CC(=O)N[C@@H](C(C)C)C(=O)O[C@@H]4C)c3nc-2c(C(=O)N[C@@H]2C(=O)N[C@H](Cc3ccc(O)cc3)C(=O)N3CCC[C@H]3C(=O)N(C)CC(=O)N[C@@H](C(C)C)C(=O)O[C@@H]2C)c(N)c1=O (stereo in doubt; 7)
pIC50: 5.35
//
compound: Cc1c2oc3c(C)ccc(C(=O)N[C@@H]4C(=O)N[C@H](Cc5ccccc5)C(=O)N5CCC[C@H]5C(=O)N(C)CC(=O)N[C@@H](C(C)C)C(=O)O[C@@H]4C)c3nc-2c(C(=O)N[C@@H]2C(=O)N[C@H](Cc3ccccc3)C(=O)N3CCC[C@H]3C(=O)N(C)CC(=O)N[C@@H](C(C)C)C(=O)O[C@@H]2C)c(N)c1=O
pIC50: 5.92

Request: Quick one: pIC50 for `CC[C@@H](C)[C@H]1NC(=O)[C@@H](NC(=O)c2c3nc4c(C(=O)N[C@@H]5C(=O)N[C@H]([C@H](C)CC)C(=O)N6CCC[C@H]6C(=O)N(C)CC(=O)N[C@@H](C(C)C)C(=O)O[C@@H]5C)ccc(C)c4oc-3c(C)c(=O)c2N)[C@@H](C)OC(=O)[C@H](C(C)C)NC(=O)CN(C)C(=O)[C@@H]2CCCN2C1=O` ?
Result: 5.23

###

target: Growth factor receptor-bound protein 2 (Mus musculus) (UniProt Q60631); experiment: In vitro inhibitory activity against Shc/Grb2 interactions in B104-1-1 cells at 2 uM; assay type: functional, cell-based
Sequence (Q60631 whole entry): as above
Numbered stars: 1 amine (or outer) side, 2 acyl side, 3 side chain; on linkers, the order of the positions; unused ones are H or OH. Bridge positions count the residues as written; N and C are the ends. Square brackets hold non-standard residues; d marks the D form. Peptide text beside a SMILES is read from it. I, II: the chains in the order shown. Actinocin(1to9) = Cc1c2oc3c(C)ccc(C(=O)[*:2])c3nc-2c(C(=O)[*:1])c(N)c1=O; NMeV = CN[C@H](C(=O)O)C(C)C; Sar = CNCC(=O)O
# reported inhibition; entries follow
Record the value in %, omitting the unit from your answer.

Request: Enter reported inhibition observed with Growth factor receptor-bound protein 2 (Mus musculus) (UniProt Q60631) for `COc1ccc(C[C@H]2NC(=O)[C@@H](NC(=O)c3c4nc5c(C(=O)N[C@@H]6C(=O)N[C@H](Cc7ccc(OC)cc7)C(=O)N7CCC[C@H]7C(=O)N(C)CC(=O)N[C@@H](C(C)C)C(=O)O[C@@H]6C)ccc(C)c5oc-4c(C)c(=O)c3N)[C@@H](C)OC(=O)[C@H](C(C)C)NC(=O)CN(C)C(=O)[C@@H]3CCCN3C2=O)cc1`
Result: 69.7

Request: Enter reported inhibition observed with Growth factor receptor-bound protein 2 (Mus musculus) (UniProt Q60631) for Cc1c2oc3c(C)ccc(C(=O)N[C@@H]4C(=O)N[C@H](Cc5ccc(O)cc5)C(=O)N5CCC[C@H]5C(=O)N(C)CC(=O)N[C@@H](C(C)C)C(=O)O[C@@H]4C)c3nc-2c(C(=O)N[C@@H]2C(=O)N[C@H](Cc3ccc(O)cc3)C(=O)N3CCC[C@H]3C(=O)N(C)CC(=O)N[C@@H](C(C)C)C(=O)O[C@@H]2C)c(N)c1=O (stereo in doubt; 7)
Result: 42.9

Request: Enter reported inhibition observed with Growth factor receptor-bound protein 2 (Mus musculus) (UniProt Q60631) for Cc1c2oc3c(C)ccc(C(=O)N[C@@H]4C(=O)N[C@H](C(C)C)C(=O)N5CCC[C@H]5C(=O)N(C)CC(=O)N(C)[C@@H](C(C)C)C(=O)O[C@@H]4C)c3nc-2c(C(=O)N[C@@H]2C(=O)N[C@H](C(C)C)C(=O)N3CCC[C@H]3C(=O)N(C)CC(=O)N(C)[C@@H](C(C)C)C(=O)O[C@@H]2C)c(N)c1=O [DACTINOMYCIN] (I: T[dV]P[Sar][NMeV] / II: T[dV]P[Sar][NMeV]; ester I:1-I:C, II:1-II:C; linker I:N-II:N via Actinocin(1to9))
Result: 40.1

Request: Enter reported inhibition observed with Growth factor receptor-bound protein 2 (Mus musculus) (UniProt Q60631) for `CC[C@@H](C)[C@H]1NC(=O)CN(C)C(=O)[C@@H]2CCCN2C(=O)[C@@H]([C@H](C)CC)NC(=O)[C@@H](NC(=O)c2c3nc4c(C(=O)N[C@@H]5C(=O)N[C@H]([C@H](C)CC)C(=O)N6CCC[C@H]6C(=O)N(C)CC(=O)N[C@H]([C@H](C)CC)C(=O)O[C@@H]5C)ccc(C)c4oc-3c(C)c(=O)c2N)[C@@H](C)OC1=O`
Result: 15.1

Request: Enter reported inhibition observed with Growth factor receptor-bound protein 2 (Mus musculus) (UniProt Q60631) for Cc1c2oc3c(C)ccc(C(=O)N[C@@H]4C(=O)N[C@H](C(C)C)C(=O)N5CCC[C@H]5C(=O)N(C)CC(=O)N[C@H](Cc5ccc(O)cc5)C(=O)O[C@@H]4C)c3nc-2c(C(=O)N[C@@H]2C(=O)N[C@H](C(C)C)C(=O)N3CCC[C@H]3C(=O)N(C)CC(=O)N[C@H](Cc3ccc(O)cc3)C(=O)O[C@@H]2C)c(N)c1=O (stereo in doubt; 5)
Result: 3.5
